# system under test: T1, human integrin αvβ6 on cells (human, UniProt P06756 31-1048; P18564 22-788)
# T1 construct: whole, on cells; also called HEK293F:huβ6
# T1 sequence (P06756 31-1048, chain 1 of 2): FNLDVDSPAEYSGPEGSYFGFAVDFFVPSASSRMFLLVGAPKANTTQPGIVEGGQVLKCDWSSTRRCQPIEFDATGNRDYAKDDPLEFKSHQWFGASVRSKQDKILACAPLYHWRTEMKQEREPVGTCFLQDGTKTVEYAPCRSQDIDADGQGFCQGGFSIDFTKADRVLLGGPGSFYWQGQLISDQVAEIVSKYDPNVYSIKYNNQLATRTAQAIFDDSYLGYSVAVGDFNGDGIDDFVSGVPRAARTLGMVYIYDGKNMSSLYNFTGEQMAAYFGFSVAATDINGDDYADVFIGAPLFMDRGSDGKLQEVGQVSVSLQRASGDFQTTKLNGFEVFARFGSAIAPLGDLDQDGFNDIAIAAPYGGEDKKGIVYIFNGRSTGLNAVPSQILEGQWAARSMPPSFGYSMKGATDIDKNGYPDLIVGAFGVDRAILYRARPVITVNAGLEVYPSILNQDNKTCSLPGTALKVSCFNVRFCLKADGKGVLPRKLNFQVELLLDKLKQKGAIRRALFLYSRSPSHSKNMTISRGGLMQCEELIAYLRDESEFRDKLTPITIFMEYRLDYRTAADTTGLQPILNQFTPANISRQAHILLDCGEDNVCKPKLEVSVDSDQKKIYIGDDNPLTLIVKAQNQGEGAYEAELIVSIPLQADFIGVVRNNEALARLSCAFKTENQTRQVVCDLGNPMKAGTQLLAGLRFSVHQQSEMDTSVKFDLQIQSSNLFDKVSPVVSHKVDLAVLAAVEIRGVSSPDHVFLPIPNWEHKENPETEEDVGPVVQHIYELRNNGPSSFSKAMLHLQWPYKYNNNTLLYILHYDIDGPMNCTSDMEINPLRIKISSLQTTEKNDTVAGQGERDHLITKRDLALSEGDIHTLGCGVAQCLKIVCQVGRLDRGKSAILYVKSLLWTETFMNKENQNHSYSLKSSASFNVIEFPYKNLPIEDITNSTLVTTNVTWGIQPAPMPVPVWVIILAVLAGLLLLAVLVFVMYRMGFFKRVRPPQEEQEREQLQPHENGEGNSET
# T1 sequence (P18564 22-788, chain 2 of 2): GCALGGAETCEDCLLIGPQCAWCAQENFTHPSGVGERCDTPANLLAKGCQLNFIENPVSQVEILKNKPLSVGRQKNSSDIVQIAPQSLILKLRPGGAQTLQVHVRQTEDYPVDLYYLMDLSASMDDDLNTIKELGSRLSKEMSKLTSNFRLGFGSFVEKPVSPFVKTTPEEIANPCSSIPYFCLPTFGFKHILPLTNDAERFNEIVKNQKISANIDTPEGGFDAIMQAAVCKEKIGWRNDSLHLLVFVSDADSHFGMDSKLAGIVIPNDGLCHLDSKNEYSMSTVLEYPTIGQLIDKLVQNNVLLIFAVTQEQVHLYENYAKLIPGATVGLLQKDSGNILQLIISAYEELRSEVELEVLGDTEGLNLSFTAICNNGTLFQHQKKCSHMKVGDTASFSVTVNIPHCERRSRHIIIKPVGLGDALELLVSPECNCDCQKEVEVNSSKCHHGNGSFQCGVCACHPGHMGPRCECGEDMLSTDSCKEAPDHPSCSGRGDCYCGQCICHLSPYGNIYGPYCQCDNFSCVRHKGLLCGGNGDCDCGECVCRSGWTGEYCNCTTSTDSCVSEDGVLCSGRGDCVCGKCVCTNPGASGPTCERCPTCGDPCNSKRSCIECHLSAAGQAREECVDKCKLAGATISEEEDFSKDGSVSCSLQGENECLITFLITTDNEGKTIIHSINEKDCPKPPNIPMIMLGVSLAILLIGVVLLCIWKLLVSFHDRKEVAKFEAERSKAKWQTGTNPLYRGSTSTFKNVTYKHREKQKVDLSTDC
# assay protocol: competition binding, flow cytometry on 293F cells expressing αvβ6; competitor 2 nM AlexaFluor-647 m15H3
For each record, write down the corresponding log10(EC50).
Response schema: value (number) is log10 of EC50 in units of nM.

Check out these entries, answers already filled in.
[
  {
    "binder": "humanized 15H3 antibody HSLC (antibody, V domains shown) VH: QVQLVQSGAEVKKPGASVKVSCKASGYSFSGYFMNWVRQAPGQGLEWMGLINPYNGDSFYNQKFKGRVTMTRQTSSSTAYMELSSLRSEDTAVYYCARGLRRDFDYWGQGTLVTVSS VL: DVVMTQSPLSLPVTLGQPASISCKSSQSLLDSDGKTYLNWLFQRPGQSPRRLIYLVSELDSGVPDRFSGSGSGTDFTLKISRVEAEDVGVYYCWQGTHFPRTFGGGTKLEIKR",
    "result number": 1.51
  },
  {
    "binder": "humanized 15H3 antibody HRLG (antibody, V domains shown) VH: QVQLVQSGAEVKKPGASVKVSCKASGYSFSGYFMNWVRQAPGQGLEWMGLINPYNGDSFYNQKFKGRVTMTRDTSSSTAYMELSSLRSEDTAVYYCARGLRRDFDYWGQGTLVTVSS VL: DVVLTQSPLSLPVTLGQPASISCKSSQSLLDSDGKTYLNWLFQRPGQSPRRLIYLVSELDSGVPDRFSGSGSGTDFTLKISRVEAEDVGVYYCWQGTHFPRTFGGGTKLEIKR",
    "result number": 1.38
  },
  {
    "binder": "humanized 15H3 antibody HLLG (antibody, V domains shown) VH: QVQLVQSGAEVKKPGASVKVSCKASGYSFSGYFMNWVRQAPGQGLEWMGLINPYNGDSFYNQKFKGRVTMTRDKSSSTAYMELSSLRSEDTAVYYCARGLRRDFDYWGQGTLVTVSS VL: DVVLTQSPLSLPVTLGQPASISCKSSQSLLDSDGKTYLNWLFQRPGQSPRRLIYLVSELDSGVPDRFSGSGSGTDFTLKISRVEAEDVGVYYCWQGTHFPRTFGGGTKLEIKR",
    "result number": -0.01
  },
  {
    "binder": "humanized 15H3 antibody HULC (antibody, V domains shown) VH: QVQLVQSGAEVKKPGASVKVSCKASGYSFSGYFMNWVRQAPGQGLEWMGLINPYNGDSFYNQKFKGRVTMTRQKSSSTAYMELSSLRSEDTAVYYCVRGLRRDFDYWGQGTLVTVSS VL: DVVMTQSPLSLPVTLGQPASISCKSSQSLLDSDGKTYLNWLFQRPGQSPRRLIYLVSELDSGVPDRFSGSGSGTDFTLKISRVEAEDVGVYYCWQGTHFPRTFGGGTKLEIKR",
    "result number": -0.03
  }
]

With those in mind, consider the next binder.
So for humanized 15H3 antibody HRLC (antibody, V domains shown) VH: QVQLVQSGAEVKKPGASVKVSCKASGYSFSGYFMNWVRQAPGQGLEWMGLINPYNGDSFYNQKFKGRVTMTRDTSSSTAYMELSSLRSEDTAVYYCARGLRRDFDYWGQGTLVTVSS VL: DVVMTQSPLSLPVTLGQPASISCKSSQSLLDSDGKTYLNWLFQRPGQSPRRLIYLVSELDSGVPDRFSGSGSGTDFTLKISRVEAEDVGVYYCWQGTHFPRTFGGGTKLEIKR , the logged log10(EC50) turned out to be 1.43

Attribution: patent US20160009806A1
